Parameter: inhibition. Scope: all listed entries.
tested on: Mast/stem cell growth factor receptor Kit (Homo sapiens), P10721 [D816V]; conditions: at 1 µM
Sequence (P10721 whole entry D816V): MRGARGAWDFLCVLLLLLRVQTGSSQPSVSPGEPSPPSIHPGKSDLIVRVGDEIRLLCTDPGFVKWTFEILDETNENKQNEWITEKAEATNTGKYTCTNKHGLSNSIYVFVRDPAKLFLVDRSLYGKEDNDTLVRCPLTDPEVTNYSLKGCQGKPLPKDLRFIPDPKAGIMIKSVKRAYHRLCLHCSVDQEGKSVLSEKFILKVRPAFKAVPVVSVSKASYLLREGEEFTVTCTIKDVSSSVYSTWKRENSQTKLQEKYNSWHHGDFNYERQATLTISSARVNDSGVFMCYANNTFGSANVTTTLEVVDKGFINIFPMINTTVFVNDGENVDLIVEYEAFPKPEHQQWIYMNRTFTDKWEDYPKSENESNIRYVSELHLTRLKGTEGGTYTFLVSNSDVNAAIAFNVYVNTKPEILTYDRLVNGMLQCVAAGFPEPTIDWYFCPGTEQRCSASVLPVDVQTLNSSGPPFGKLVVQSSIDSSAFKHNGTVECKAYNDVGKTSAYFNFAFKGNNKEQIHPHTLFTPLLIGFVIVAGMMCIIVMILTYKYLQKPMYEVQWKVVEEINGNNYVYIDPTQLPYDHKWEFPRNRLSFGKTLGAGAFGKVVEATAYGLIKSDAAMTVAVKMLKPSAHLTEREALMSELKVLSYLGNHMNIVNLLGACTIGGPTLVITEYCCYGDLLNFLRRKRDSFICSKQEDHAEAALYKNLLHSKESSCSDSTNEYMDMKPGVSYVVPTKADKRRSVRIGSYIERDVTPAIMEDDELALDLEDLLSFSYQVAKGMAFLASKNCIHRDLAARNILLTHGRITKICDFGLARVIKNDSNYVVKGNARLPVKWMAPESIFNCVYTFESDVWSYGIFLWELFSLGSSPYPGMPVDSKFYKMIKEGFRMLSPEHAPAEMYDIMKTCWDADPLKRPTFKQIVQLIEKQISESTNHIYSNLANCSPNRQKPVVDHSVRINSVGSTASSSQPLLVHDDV
Express it in %; write the number only.

> print(dat)
                                smiles.data  measure.unit  recorded.measurement
1  COc1cc2c(cc1Nc1nc(Nc3ccsc3C(N)=O)c3cc[nH]c3n1)N(C(=O)CN(C)C)CCC2(C)C             %                   7.2
2  CCn1c(-c2nonc2N)nc2cnc(Oc3cccc(NC(=O)c4ccc(N(C)C)cc4)c3)cc21             %                 -1.44

Please examine the following record next.
Req: Can you share its inhibition? I mean this compound: "Cc1ccc2c(-c3ccnc(Nc4ccccc4)n3)c(-c3ccc(F)cc3)nn2n1"
Resp: -0.04
